- Measurement Target: Mitogen-activated protein kinase 14 (Homo sapiens)
- Sequence (Q16539 whole entry): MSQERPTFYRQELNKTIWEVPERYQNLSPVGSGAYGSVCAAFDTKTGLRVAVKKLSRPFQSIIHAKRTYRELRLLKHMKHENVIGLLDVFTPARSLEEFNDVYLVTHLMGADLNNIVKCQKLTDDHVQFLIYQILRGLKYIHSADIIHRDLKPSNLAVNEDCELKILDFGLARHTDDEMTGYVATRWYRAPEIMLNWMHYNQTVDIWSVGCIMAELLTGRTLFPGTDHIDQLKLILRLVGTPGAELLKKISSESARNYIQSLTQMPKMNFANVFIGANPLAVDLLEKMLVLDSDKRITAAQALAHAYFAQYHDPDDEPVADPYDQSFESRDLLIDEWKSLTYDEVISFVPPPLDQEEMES
- Method Summary: Inhibition of p38alpha MAP kinase
Measurement Kind: IC50 (nM)
Kindly provide the numeric value in nM only, without the unit symbol.

Before answering, review these 5 worked examples.
1) Cc1ccc(C(=O)NC2CC2)cc1-c1cc2cnnc(-c3ccc(F)cc3F)c2n(C)c1=O
2.7
2) Cn1c(=O)c(Cc2ccc(F)cc2)cc2cnnc(-c3ccc(F)cc3F)c21
55.8
3) Cn1c(=O)c(Nc2ccc(F)cc2F)cc2cnnc(-c3ccc(F)cc3F)c21
0.9
4) Cc1cnc(C(=O)NC2CC2)cc1-c1cc2cnnc(-c3ccc(F)cc3F)c2n(C)c1=O
14.5
5) Cc1c(F)cc(C(=O)NC2CC2)cc1-c1cc2cnnc(-c3ccc(F)cc3F)c2n(C)c1=O
1.4

Query: If you can, please state the reported IC50 value of `Cn1c(=O)c(-c2cc(C(=O)NC3CC3)ccc2Cl)cc2cnnc(-c3ccc(F)cc3F)c21` .
Response: 2.6

Query: If you can, please state the reported IC50 value of `Cc1ccc(C(=O)NC2(C)CC2)cc1-c1cc2cnnc(-c3ccc(F)cc3F)c2n(C)c1=O` .
Response: 3.1

Query: If you can, please state the reported IC50 value of `Cn1c(=O)c(Cc2ccc(F)cc2F)cc2cnnc(-c3ccc(F)cc3F)c21` .
Response: 6.1

Query: If you can, please state the reported IC50 value of `CN(c1ccc(F)cc1)c1cc2cnnc(-c3ccc(F)cc3F)c2n(C)c1=O` .
Response: 299

###

Reported IC50 by item:
- Measurement Target: Mitogen-activated protein kinase 14 (Homo sapiens)
- Method Summary: Inhibition of p38alpha MAP kinase
Kindly provide the numeric value in nM only, without the unit symbol.

1. Cc1ccc(C(N)=O)cc1-c1cc2cnnc(-c3ccc(F)cc3F)c2n(C)c1=O
2.7

Consider the record given below.
Query: If you can, please state the reported IC50 value of `Cn1c(=O)c(Oc2ccc(F)cc2)cc2cnnc(-c3ccc(F)cc3F)c21` .
Response: 78

###

- Method Summary: Clearance in Sprague-Dawley rat at 2 mg/kg, iv
- Format: ADME, organism-based
- Design: dose 2 mg/kg, route intravenous
- Condition Set: in vivo
Measurement Kind: clearance (mL/min/kg)
Kindly provide the numeric value in mL/min/kg only, without the unit symbol.

Query: If you can, please state the reported clearance value of `Cc1ccc(C(=O)NC2CC2)cc1-c1cc2cnnc(-c3ccc(F)cc3F)c2n(C)c1=O` .
Response: 3.83

This collection of values is drawn from ChEMBL document CHEMBL1250511.
